assay-notes: Cytotoxicity, CellTiter-Blue Cell Viability Assay
test-parameters: African green monkey
assay-metric: CC50 (µM)
# unit: µM | format: bare number

Ask: Output measured CC50 for this item: C[C@H]1[C@H](OC(=O)CCC(=O)O)O[C@@H]2O[C@@]3(C)CC[C@H]4[C@H](C)CC[C@@H]1[C@@]24OO3 [artesunate, reference compound]
Reply: 127

Ask: Output measured CC50 for this item: Cc1c(O)cccc1C(=O)N[C@@H](CSc1ccccc1)[C@H](O)CN1C[C@H]2CCCC[C@H]2C[C@H]1C(=O)NC(C)(C)C
Reply: 39.3

###

Test system: GX_P2V
assay-notes: microbe, parasite or virus in culture
Assay type: cell-based, Pangolin coronavirus
test-parameters: Pangolin coronavirus, Vero C1008, 72 h
Record form. Attribute: EC50. Fill in for each entry.
# unit: µM | format: bare number

Ask: Output measured EC50 for this item: C=C1C(=O)O[C@@]23[C@H]1CC[C@@H](C)[C@@H]2CC[C@@]1(C)O[C@@H]31
Reply: 8.84

Ask: Output measured EC50 for this item: C=C1CC[C@@H]2[C@](C)(CO)[C@H](O)CC[C@@]2(C)[C@@H]1C/C=C1/C(=O)OC[C@H]1O [andrographolide]
Reply: 6.79

Ask: Output measured EC50 for this item: Cc1cccc(C)c1OCC(=O)N[C@@H](Cc1ccccc1)[C@@H](O)C[C@H](Cc1ccccc1)NC(=O)[C@H](C(C)C)N1CCCNC1=O
Reply: 11.7
